# tgt: HCV NS5B RdRp genotype 1b (Hepatitis C virus genotype 1b, UniProt Q9WMX2)
# Construct: The protein was expressed with an 18 amino acid C-terminal truncation to enhance the solubility; made in house; host or cells: E. coli BL21(DE3), pET21a vector
# Sequence (Q9WMX2 2420-2992): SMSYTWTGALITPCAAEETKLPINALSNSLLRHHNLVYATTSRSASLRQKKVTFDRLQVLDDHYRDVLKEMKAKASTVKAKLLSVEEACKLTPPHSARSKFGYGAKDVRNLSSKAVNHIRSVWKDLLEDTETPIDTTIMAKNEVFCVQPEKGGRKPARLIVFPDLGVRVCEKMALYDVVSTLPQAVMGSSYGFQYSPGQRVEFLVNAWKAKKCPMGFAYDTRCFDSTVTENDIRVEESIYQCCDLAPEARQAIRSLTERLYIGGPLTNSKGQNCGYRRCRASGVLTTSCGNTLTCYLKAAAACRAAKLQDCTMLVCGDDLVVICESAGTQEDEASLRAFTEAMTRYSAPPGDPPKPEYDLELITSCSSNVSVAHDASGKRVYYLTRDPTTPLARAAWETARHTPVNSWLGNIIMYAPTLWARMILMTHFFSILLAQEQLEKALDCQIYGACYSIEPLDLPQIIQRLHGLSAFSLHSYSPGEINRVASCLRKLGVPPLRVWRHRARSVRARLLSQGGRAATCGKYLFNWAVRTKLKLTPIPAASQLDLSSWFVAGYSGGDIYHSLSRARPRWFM
# protocolDetails: Standard HCV NS5B RdRp enzyme assay
# Assay type: biochemical
# conditionDescription: Table 1a; HCV NS5B RdRp genotype 1b; read-out: IC50
Listing of recorded IC50 by entry.

* CNC(=O)c1c(-c2ccc(F)cc2)oc2ccc(-c3cccc(C(=O)Nc4cccc(C#N)c4)c3)cc12 | 250 to 1000 nM
* CNC(=O)c1c(-c2ccc(F)cc2)oc2ccc(-c3cc(C(=O)CCC(C)C)ccc3OCCN(C)C)cc12 | < 250 nM
* CNC(=O)c1c(-c2ccc(F)cc2)oc2ccc(-c3cccc(C(=O)NCCOC)c3)cc12 [drawing 182] | 1000 to 10000 nM

# next compound below
Lookup: // query IC50 value for entry CNC(=O)c1c(-c2ccc(F)cc2)oc2ccc(-c3cccc(C(=O)N(C)CCC#N)c3)cc12 [drawing 204]
Found: 250 to 1000 nM
